meta.source: patent US8435549B2

- assay-details: Determination of the log P values (LC/MS, HCOOH method)
- Format: physicochemical
- condition-context: reversed-phase C18 HPLC column, pH 3.4, α isomer of the isomer mixture; HPLC, acidic range (pH 3.4)
observable: chromatographic logP
Lab note: record the figure alone, no unit after it.

Measured chromatographic logP of CCc1cc(C)cc(CC)c1C1=C(O)C2(CCC(OCC(F)(F)F)CC2)OC1=O (stereo not shown) [Example I-2-a-1] : 3.78

* * *

- assay-details: Determination of the log P values (LC/MS, HCOOH method)
- Type: physicochemical
- condition-context: α isomer of the α + β mixture; HPLC reversed-phase C18, HCOOH method, 55° C.
observable: log P

Measured log P of Cc1cc(Cl)cc(C)c1C1=C(O)C2(CCC(OCC(F)(F)F)CC2)OC1=O (mixture of isomers) : 3.39
